Where do the numbers come from? From PubChem BioAssay (NCI).

System: A498 renal
Assay: NCI-60 one-dose screen, 48 h (100 = growth as untreated, 0 = no growth, -100 = all killed)
Settings: 10 µM unless noted
Procedure: Growth inhibition of the A498 human tumor cell line is measured as a screen for anti-cancer activity. Cells are grown in 96 well plates and exposed to the test compound for 48 hours. Compounds are tested at a single concentration, which is 10^-5 M for most compounds. The reported endpoint is percent growth (GI% or GIPRCNT), where numbers from 0 - 100% represent growth inhibition, and numbers from -100% - 0 represent cell death. For example, a value of 40 represents 60% growth inhibition. […]
Compounds without any hit were thinned out: in the full panel of roughly 83,000, 20% have a hit.
Each entry gets class 0 if its growth stays under 90%, and class 1 if its growth is 90% or above.

# Compound, Label class
data = [
    ("COc1cc(C2=NNC(c3ccc(N(C)C)cc3)C2)cc(OC)c1OC (stereo not drawn)", "class 0"),
    ("COc1ccc2c(c1)Oc1nc(N)c(C#N)c(N)c1C2Sc1ccc(SC)cc1 (stereo not drawn)", "class 1"),
]

Ask: Identify whether the reported growth of the following compound is 90% or greater: COCCOCCOCc1n(Cc2ccc3ccccc3c2)c2ccccc2[n+]1Cc1ccc2ccccc2c1
Result: class 0

Ask: Dear colleague, could you confirm whether COc1ccc(C2=NN(c3ccc(S(N)(=O)=O)cc3)C(c3ccc(Cl)cc3)C2)c(O)c1 (stereo not drawn) has growth at or above 90%?
Result: class 0

====

system: OVCAR-5 ovarian; assay: NCI-60 one-dose screen, 48 h (100 = growth as untreated, 0 = no growth, -100 = all killed); conditions: 10 µM unless noted
Compounds without any hit were thinned out: in the full panel of roughly 83,000, 20% have a hit.
Endpoint: growth (%)
Write the number in % without appending the unit.

# Molecule, Measured target, Endpoint, Unit descriptor, Observed value
records = [
    ("O=C1c2ccccc2C(=O)c2c1oc1c2c(=O)[nH]c2ccccc21", "OVCAR-5 ovarian", "growth", "%", 102),
]

Ask: Provide growth value for the following molecule: O=C1C(Cl)=C(Nc2ccc3c(c2NC2=C(Cl)C(=O)c4ccccc4C2=O)C(=O)c2ccccc2C3=O)C(=O)c2ccccc21
Result: 3.29

Ask: State its growth: O=C(CCCCCCCCC(=O)Nc1cccc(C2=NCCN2)c1)Nc1cccc(C2=NCCN2)c1
Result: 109

Ask: Give growth for the following molecule: Cn1nc(C(F)(F)F)c(-c2cc(C(F)(F)F)cc(C(F)(F)F)c2)c1-c1ccc(OCc2ccc(Cl)cc2)cc1O
Result: 29.1

Ask: Give a short answer stating reported growth for Nc1ccc2c(c1)C(=O)C(=O)c1c-2nc2ccccn12 .
Result: -47.4

Ask: Please look at this molecule and report its growth: Nc1c(C(=O)Nc2ccccc2)sc2nc3c(cc12)CN(C(=O)OCc1ccccc1)CC3
Result: 91.7

Ask: Annotate the molecule COc1ccc2oc(=O)cc(-c3c(C#N)c(N)n4nc(N)c(C#N)c4c3C#N)c2c1 with its measured growth.
Result: 96.8

Ask: Name the recorded growth of the molecule listed here: Cc1cnc(SCc2ccc(Cl)cc2Cl)nc1Nc1ccc(Cl)c(Cl)c1
Result: 103

Ask: State its growth: O=C1CS/C(=N/c2nnc(-c3ccc(O)cc3)s2)N1
Result: 103

Ask: For the molecule CCOC(=O)C1=C(C)n2nc(CC#N)c(C#N)c2NC1c1ccc(Cl)cc1 (stereo not drawn) , report growth.
Result: 103

Ask: Give the reported value of growth for this record: C#C[C@@]1(O)[C@@H](CO)O[C@@H](n2cnc3c(-c4ccccc4)ncnc32)[C@@H]1O
Result: 101

Ask: Please give measured growth of the following entry: COc1cccc(C(=O)OCCn2nc3c4c(cccc42)C(=O)c2ccccc2-3)c1O
Result: 69.3

Ask: Report growth for COC(=O)c1ccc(NC(=O)CSc2nc(-c3ccc(F)cc3)nc3ccccc23)cc1
Result: 107
